targetOrTestSystem: recombinant HPK1 protein (Homo sapiens)
Sequence (Q92918 1-346 limits assumed): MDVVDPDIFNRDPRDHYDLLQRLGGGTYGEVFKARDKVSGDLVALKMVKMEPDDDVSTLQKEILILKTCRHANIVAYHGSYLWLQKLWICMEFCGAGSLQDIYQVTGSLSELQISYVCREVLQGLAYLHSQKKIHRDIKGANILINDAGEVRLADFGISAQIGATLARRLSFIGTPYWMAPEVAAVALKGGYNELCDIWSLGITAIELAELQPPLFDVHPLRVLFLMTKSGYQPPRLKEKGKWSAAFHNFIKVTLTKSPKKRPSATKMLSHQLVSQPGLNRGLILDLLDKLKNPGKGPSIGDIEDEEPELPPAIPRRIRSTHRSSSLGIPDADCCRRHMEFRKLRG
testMethodNotes: Primary assay of HPK1 enzymatic activity inhibition (ADP-Glo luminescence)
conditionParameters: recombinant HPK1, MBP substrate, 1 hour at room temperature
endpoint: IC50

Record excerpt, results attached:
# mol, endpoint, assayValue
data = [
    ("CS(=O)(=O)c1ccc(Nc2ncc(C(N)=O)c(N[C@H](CO)c3ccccc3)n2)cc1F", "IC50", "50 to 200 nM"),
    ("CCOC(=O)c1cnc(Nc2ccc(S(C)(=O)=O)cc2C)nc1N[C@H](CO)c1ccccc1", "IC50", "200 to 500 nM"),
]

Which value of IC50 has been reported for CCOC(=O)c1cnc(Nc2ccc3c(c2)CCN(CC)C3=O)nc1N[C@H](CO)c1ccccc1 in the records?
50 to 200 nM

Which value of IC50 has been reported for COCCNC(=O)c1cnc(Nc2ccc(S(C)(=O)=O)c(C)c2)nc1N[C@H](CO)c1ccccc1 in the records?
200 to 500 nM

Which value of IC50 has been reported for Cc1cc(Nc2ncc(C(=O)NC(C)C)c(N[C@H](CO)c3ccccc3)n2)ccc1S(C)(=O)=O in the records?
50 to 200 nM

Which value of IC50 has been reported for Cc1noc(-c2cnc(Nc3ccc4c(c3)CC(C)(C)NC4=O)nc2N[C@H](CO)c2ccccc2)n1 in the records?
< 50 nM
